- target-or-test-system: T1, L1-CR1 (Her054P)
- T1 construct: also called 1.0
- T1 chain: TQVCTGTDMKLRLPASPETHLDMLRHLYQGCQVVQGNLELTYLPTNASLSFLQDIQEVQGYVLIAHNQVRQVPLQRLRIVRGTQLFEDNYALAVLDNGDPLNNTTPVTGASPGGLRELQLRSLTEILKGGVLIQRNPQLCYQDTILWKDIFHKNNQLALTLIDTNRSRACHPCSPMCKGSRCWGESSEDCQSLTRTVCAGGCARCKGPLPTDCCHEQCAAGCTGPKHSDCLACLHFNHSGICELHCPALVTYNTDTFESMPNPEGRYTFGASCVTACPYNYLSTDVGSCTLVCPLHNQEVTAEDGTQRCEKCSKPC
- procedure-summary: ELISA, soluble scFv on L1-CR1
observed-property: binding result

S1R3A1_BMV_1G4 (scFv, V domains shown, scFv, soluble from bacterial periplasm in the screen; also called Her2_S1R3A1_BMV_1G4) VH: QVQLVESGAEVKKPGASVKVSCKASGYTFTSYDINWVRQAPGQRLEWMGWINAGNGNTKYSQKFQGRVTITRDTSASTAYMELRSLRSDDTAVYYCARGRSYGHPYYFDYWGQGTLVTVSS VL: QSVLTQPASVSGSPGQSITISCTGTSSDVGGYNYVSWYQQHPGKAPKLMIYEGSKRPSGVSNRFSGSKSGNTASLTISGLQAEDEADYYCSSYTTRSTRVFGGGTKLTVL: no binding
S1R3B1_BMV_1A1 (scFv, V domains shown, scFv, soluble from bacterial periplasm in the screen; also called Her2_S1R3B1_BMV_1A1) VH: EVQLVQSGAEVKEPGASVKVSCKASGYDFSNYGFSWVRQAPGQGLEWMGWISSYNGYTNYAQRLQGRVTMTTDTSTSTAYMELRSLRSDDTAVYYCARDRGLGNWYFDLWGQGTLVTVSS VL: QSVLTQPASVSGSPGQSITISCTGTSSDVGGYNYVSWYQQHPGKAPKLMIYEGSKRPSGVSNRFSGSKSGNTASLTISGLQAEDEADYYCSSYTTRSTRVFGGGTKLTVL: no binding
S1R3B1_BMV_1A10 (scFv, V domains shown, scFv, soluble from bacterial periplasm in the screen; also called Her2_S1R3B1_BMV_1A10) VH: QMQLVQSGGGVVQPGRSLRLSCAASGFTFSSYGMHWVRQAPGKGLEWVAVISYDGSIKYYADSVKGRFTISRDNSKNTLYLQMNSLRAEDTGVYYCSKDRYSSGWYSSDAFDIWGRGTMVTVSS VL: SSELTQDPAVSVALGQTVRITCQGDSLRSYYASWYQQKPGQAPVLVIYGKNNRPSGIPDRFSGSSSGNTASLTITGAQAEDEADYYCHSRDSSGNHVLFGGGTKLTVL: no binding
